biological target: recombinant human integrin αVβ6 (Homo sapiens (Human), UniProt P06756+P18564); assay: Solid phase integrin αVβ6 binding assay; details: recombinant TGFβ1 LAP as ligand, values given as ranges, read-out: αVβ6 Inhibition IC50 (nM) - range
Sequence (P06756 31-992): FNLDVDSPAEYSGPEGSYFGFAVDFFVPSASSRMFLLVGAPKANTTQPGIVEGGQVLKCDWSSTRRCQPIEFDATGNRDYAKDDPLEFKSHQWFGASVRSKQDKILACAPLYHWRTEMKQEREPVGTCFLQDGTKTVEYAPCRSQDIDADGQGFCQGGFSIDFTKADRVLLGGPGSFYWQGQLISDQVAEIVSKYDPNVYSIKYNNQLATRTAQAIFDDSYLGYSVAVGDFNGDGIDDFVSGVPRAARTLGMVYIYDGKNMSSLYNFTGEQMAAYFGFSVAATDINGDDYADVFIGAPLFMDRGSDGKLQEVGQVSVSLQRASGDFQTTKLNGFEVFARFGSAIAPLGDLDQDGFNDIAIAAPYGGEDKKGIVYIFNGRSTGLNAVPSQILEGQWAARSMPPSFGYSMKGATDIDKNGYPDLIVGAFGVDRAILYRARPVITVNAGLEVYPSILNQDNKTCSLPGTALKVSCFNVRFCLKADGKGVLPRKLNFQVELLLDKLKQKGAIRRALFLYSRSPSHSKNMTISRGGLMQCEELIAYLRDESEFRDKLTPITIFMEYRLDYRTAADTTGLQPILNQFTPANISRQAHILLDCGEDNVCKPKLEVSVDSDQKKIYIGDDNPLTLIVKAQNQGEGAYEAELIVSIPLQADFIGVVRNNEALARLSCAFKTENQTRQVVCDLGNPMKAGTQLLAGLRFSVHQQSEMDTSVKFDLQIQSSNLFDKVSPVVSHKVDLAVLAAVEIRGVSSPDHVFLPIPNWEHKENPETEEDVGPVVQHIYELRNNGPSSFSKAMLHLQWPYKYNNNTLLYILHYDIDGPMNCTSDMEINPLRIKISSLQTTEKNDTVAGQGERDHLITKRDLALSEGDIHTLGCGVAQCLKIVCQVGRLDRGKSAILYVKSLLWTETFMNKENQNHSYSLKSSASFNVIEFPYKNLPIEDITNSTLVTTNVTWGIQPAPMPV
Sequence (P18564 22-707): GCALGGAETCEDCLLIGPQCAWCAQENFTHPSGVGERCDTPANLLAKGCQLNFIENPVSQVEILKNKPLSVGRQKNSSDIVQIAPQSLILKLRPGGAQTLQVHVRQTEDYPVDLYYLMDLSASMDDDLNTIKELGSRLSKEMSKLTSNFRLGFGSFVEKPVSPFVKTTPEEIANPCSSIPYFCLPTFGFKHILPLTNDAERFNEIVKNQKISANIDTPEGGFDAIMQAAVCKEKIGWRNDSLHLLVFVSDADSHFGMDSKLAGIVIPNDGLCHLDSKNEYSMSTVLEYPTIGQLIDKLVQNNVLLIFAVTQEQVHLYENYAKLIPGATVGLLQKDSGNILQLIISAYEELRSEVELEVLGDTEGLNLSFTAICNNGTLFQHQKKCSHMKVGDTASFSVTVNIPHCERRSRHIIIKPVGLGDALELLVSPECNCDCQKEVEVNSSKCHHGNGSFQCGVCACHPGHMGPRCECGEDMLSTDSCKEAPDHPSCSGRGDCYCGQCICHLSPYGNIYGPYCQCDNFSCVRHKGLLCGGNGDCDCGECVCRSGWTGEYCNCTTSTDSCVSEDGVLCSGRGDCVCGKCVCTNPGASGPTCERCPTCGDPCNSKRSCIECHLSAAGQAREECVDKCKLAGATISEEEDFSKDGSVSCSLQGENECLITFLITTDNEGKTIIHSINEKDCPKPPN
Each entry below carries its reported IC50.
endpoint: IC50

INSERT INTO results (compound, reading) VALUES
  ('CC1(C(=O)N[C@@H](CCCCCCCc2ccc3c(n2)NCCC3)C(=O)O)CCCCC1', '< 50 nM'),
  ('CS(=O)(=O)N1CCC(C(=O)N[C@@H](CCCCCCCc2ccc3c(n2)NCCC3)C(=O)O)CC1', '< 50 nM'),
  ('O=C(N[C@@H](CCCCCCCc1ccc2c(n1)NCCC2)C(=O)O)C1CC2CCC(C1)O2 (stereo partly drawn)', '< 50 nM'),
  ('CS(=O)(=O)CCCC(=O)N[C@@H](CCCCCCCc1ccc2c(n1)NCCC2)C(=O)O', '251 to 1000 nM'),
  ('CC1(C(=O)N[C@@H](CCCCCCCc2ccc3c(n2)NCCC3)C(=O)O)CCOCC1', '< 50 nM'),
  ('COCCCC(=O)N[C@@H](CCCCCCCc1ccc2c(n1)NCCC2)C(=O)O', '251 to 1000 nM'),
  ('O=C(O)[C@H](CCCCCCCc1ccc2c(n1)NCCC2)NC(=O)C1(C(F)(F)F)CCOCC1', '< 50 nM'),
  ('NS(=O)(=O)CCC(=O)N[C@@H](CCCCCCCc1ccc2c(n1)NCCC2)C(=O)O', '251 to 1000 nM'),
  ('C[C@@]1(C(=O)N[C@@H](CCCCCCCc2ccc3c(n2)NCCC3)C(=O)O)CCCOC1 (mixture of isomers)', '50 to 250 nM'),
  ('CC(C)(C)OC(=O)N1CC(C)(OC(=O)N[C@@H](CCCCCCCc2ccc3c(n2)NCCC3)C(=O)O)C1', '< 50 nM'),
  ('CS(=O)(=O)N1CCC[C@@H](C(=O)N[C@@H](CCCCCCCc2ccc3c(n2)NCCC3)C(=O)O)C1 (mixture of isomers)', '< 50 nM'),
  ('O=C(N[C@@H](CCCCCCCc1ccc2c(n1)NCCC2)C(=O)O)C1CCNCC1', '50 to 250 nM'),
  ('O=C(O)[C@H](CCCCCCCc1ccc2c(n1)NCCC2)NC(=O)C12CC(C1)C2', '< 50 nM'),
  ('O=C(O)[C@H](CCCCCCCc1ccc2c(n1)NCCC2)NC(=O)[C@H]1CCOc2ccccc21 (mixture of isomers)', '50 to 250 nM'),
  ('CC(=O)N1CCC(C(=O)N[C@@H](CCCCCCCc2ccc3c(n2)NCCC3)C(=O)O)CC1', '50 to 250 nM');
